System: K-562 leukemia
Assay: NCI tumour cell line growth inhibition, 48 h
measuredParameter: GI50

>  <compound>
N[C@@H]1CCCC[C@@H]1N.O=C([O-])CN(CP(=O)([O-])[O-])CP(=O)([O-])[O-].[Pt+2]

>  <measuredParameter>
GI50

>  <valueMeasured>
> 100000 nM

$$$$
>  <compound>
COc1ccc(-c2nnc(N3CCN(C(=O)CN4CCN(c5ccc(Cl)cc5)CC4)CC3)nc2-c2ccc(OC)cc2)cc1

>  <measuredParameter>
GI50

>  <valueMeasured>
15200 nM

$$$$
>  <compound>
C=CCC(N[C@H](CO)c1ccccc1)c1cn(S(=O)(=O)c2ccc(C)cc2)c2ccccc12 (some centres undefined)

>  <measuredParameter>
GI50

>  <valueMeasured>
2720 nM

$$$$
>  <compound>
O=C(O)c1cc(Cc2ccc(O)c(C(=O)O)c2)ccc1O (tested in a mixture with another compound)

>  <measuredParameter>
GI50

>  <valueMeasured>
2380 nM

$$$$
